target: furin, P09958; assay: furin cleavage Z-score vs untreated control; higher = more cleavage, active = 3.5 or more, inactive = 1 or less, 8 variable residues between constant flanks; conditions: 15 min;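 note: purified furin at 1:10 enzyme:substrate in 50 mM HEPES pH 7.5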
Sequence (P09958 whole entry): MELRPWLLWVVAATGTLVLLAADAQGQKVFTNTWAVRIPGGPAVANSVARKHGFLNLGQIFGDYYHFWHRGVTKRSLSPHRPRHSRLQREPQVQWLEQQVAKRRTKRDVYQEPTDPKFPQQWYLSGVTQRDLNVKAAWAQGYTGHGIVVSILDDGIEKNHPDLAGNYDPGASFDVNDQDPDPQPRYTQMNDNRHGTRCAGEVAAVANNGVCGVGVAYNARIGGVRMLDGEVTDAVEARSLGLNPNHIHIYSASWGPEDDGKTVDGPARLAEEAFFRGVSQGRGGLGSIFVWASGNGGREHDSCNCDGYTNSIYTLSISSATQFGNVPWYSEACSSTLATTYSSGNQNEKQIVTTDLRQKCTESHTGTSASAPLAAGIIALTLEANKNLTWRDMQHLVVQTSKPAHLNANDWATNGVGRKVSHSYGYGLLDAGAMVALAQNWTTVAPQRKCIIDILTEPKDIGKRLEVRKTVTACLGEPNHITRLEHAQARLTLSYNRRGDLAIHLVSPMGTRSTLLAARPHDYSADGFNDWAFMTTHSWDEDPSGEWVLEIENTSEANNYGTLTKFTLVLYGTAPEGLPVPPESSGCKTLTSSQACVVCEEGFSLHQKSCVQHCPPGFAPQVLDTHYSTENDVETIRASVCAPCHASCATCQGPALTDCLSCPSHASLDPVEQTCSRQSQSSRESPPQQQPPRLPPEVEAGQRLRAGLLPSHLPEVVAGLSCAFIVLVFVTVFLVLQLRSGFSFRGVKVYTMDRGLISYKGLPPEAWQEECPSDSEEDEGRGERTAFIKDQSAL
Some of the results follow. No count for the full screen is at hand.
Each entry below lists one item and its recorded furin cleavage Z-score value.
Answer with a number only.

Residue Sequence	furin cleavage Z-score
CARCHARKAVAGNASASA [HC1425]	0.298
CAHVGPGEGAAGNASASA [HC1113]	0.461
CAAYAQQTRGAGNASASA [HC676]	0.047
CATTPCMGSWAGNASASA [HC68]	0.786
CAAGIAYFSMAGNASASA [HC339]	0.534

Enquiry: // returns reported furin cleavage Z-score for input CARPARLHRFAGNASASA [FS-1065]
Return: 0.964

Enquiry: // returns reported furin cleavage Z-score for input CAREKRGPSGAGNASASA [FS-3153]
Return: -0.112
